The origin of these recorded values is paper PMC5591402.

target: N2.15; experiment: FP
Where no end group is shown, it is not given here.
Measurement Name: pKd
Scale: pKd equals -log10([C]), with [C] in mol/L.

Inquiry: Need pKd of GYQDYEPEA (also: TAMRA fluorophore, position not given here) [TAMRA-labeled α-synuclein peptide] , thanks.
Reply text: 7.64
